Test system: NCI-H322M lung
Experiment: NCI-60 one-dose screen, 48 h (100 = growth as untreated, 0 = no growth, -100 = all killed)
Conditions: 10 µM unless noted
The panel holds about 83,000 compounds, 20% with a hit somewhere; the sample as a whole holds those more often.
growth: recorded values
Unit % implied. Number only.

{"COMPOUND": "CCOC(=O)CNC(=O)Sc1ccc(C(C)(C)C)cc1", "ASSAYED TARGET": "NCI-H322M lung", "UNITS OF MEASURE": "%", "growth": 79.6}
{"COMPOUND": "CN=S(=O)(OCCCCCOS(=O)(=NC)c1ccc(C)cc1)c1ccc(C)cc1 (configuration not stated)", "ASSAYED TARGET": "NCI-H322M lung", "UNITS OF MEASURE": "%", "growth": 101}
{"COMPOUND": "O=C(O)c1ccccc1Cc1ccc2c(c1)CCCC2", "ASSAYED TARGET": "NCI-H322M lung", "UNITS OF MEASURE": "%", "growth": 99.2}
{"COMPOUND": "Nc1nc(N)nc(N2CCCCC2)n1", "ASSAYED TARGET": "NCI-H322M lung", "UNITS OF MEASURE": "%", "growth": 94.4}
{"COMPOUND": "O=C(OC1CCCC1)c1ccccc1Cl", "ASSAYED TARGET": "NCI-H322M lung", "UNITS OF MEASURE": "%", "growth": 99.7}

Give recorded growth with NCI-H322M lung for the following compound: O=c1cc(Cl)nc2ccccn12
107

Request: growth, test system NCI-H322M lung, entry CCN(Cc1ccc(Cl)c(Cl)c1)c1ccc2nc(N)nc(N)c2c1C
-94.3

Notebook entry, NCI-H322M lung assay: growth of CCOC(=O)c1c(C)[nH]c(C)c1C=O = ?
102

What reported growth corresponds to CCOC(=O)N[C@H]1CCc2cc(OC)c(OC)c(OC)c2-c2ccc(SC)c(=O)cc21 on NCI-H322M lung?
30.7

Give growth (NCI-H322M lung) of the following compound: COc1ccc(-c2csc(NC(=O)Nc3nc(-c4ccc(OC)cc4)cs3)n2)cc1
90.1

Identify the measured growth of O=C1C=CC(=O)C2=C1CCCC2 for NCI-H322M lung.
92

// map C(=C\c1ccncc1)/c1ccncc1 to recorded growth (system: NCI-H322M lung)
90.8

---

The reader will find reported growth values listed item by item below.
Test system: UO-31 renal
Assay: NCI-60 one-dose screen, 48 h (100 = growth as untreated, 0 = no growth, -100 = all killed)
Details: 10 µM unless noted
Protocol: Growth inhibition of the UO-31 human tumor cell line is measured as a screen for anti-cancer activity. Cells are grown in 96 well plates and exposed to the test compound for 48 hours. Compounds are tested at a single concentration, which is 10^-5 M for most compounds. The reported endpoint is percent growth (GI% or GIPRCNT), where numbers from 0 - 100% represent growth inhibition, and numbers from -100% - 0 represent cell death. For example, a value of 40 represents 60% growth inhibition. […]
This is part of a sample that, as a whole, favours compounds with a hit. Of some 83,000 tested, about 20% had one in any assay.
Give the quantity in %, number only.

Completed entries (count: 2):
{"COMPOUND": "NC(CO)(CO)c1ccccc1", "OBSERVED PROPERTY": "growth", "UNITS OF MEASURE": "%", "OBSERVED": 88.6}
{"COMPOUND": "CC(C)(C)CC1(C)NC(=O)NC1=O (stereo not drawn)", "OBSERVED PROPERTY": "growth", "UNITS OF MEASURE": "%", "OBSERVED": 100}

Pending compound:
Recall the recorded growth for COc1cc(OC)c2cc(C(=O)c3ccc(C#N)cc3)c(=O)oc2c1 with UO-31 renal and state it.
84.7
